- target-or-system: OATP4C1 (Homo sapiens, UniProt Q6ZQN7)
- Construct: HEK293 cells stably expressing human OATP4C1
- Sequence (Q6ZQN7 whole entry): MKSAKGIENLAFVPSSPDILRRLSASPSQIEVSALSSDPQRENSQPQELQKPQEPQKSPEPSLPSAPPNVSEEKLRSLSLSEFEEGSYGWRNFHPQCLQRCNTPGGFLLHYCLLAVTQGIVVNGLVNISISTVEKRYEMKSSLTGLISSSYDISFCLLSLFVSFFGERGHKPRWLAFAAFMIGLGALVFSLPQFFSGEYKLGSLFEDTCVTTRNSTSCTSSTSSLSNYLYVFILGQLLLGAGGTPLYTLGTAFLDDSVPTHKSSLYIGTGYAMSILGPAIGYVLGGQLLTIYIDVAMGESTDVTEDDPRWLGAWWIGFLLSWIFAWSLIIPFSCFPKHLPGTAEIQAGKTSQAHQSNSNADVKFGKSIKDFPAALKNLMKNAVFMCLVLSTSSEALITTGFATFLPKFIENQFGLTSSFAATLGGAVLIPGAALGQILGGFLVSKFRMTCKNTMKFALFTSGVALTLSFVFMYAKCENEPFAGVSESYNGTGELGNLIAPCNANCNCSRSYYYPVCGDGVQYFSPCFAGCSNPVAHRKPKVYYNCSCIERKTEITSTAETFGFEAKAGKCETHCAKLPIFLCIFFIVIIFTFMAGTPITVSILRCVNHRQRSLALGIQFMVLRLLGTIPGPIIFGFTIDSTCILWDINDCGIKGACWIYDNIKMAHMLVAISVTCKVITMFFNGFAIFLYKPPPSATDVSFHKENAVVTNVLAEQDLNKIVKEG
- assay-remarks: inhibition of [3H]SDMA uptake in HEK-OATP4C1 cells
recorded-metric: pIC50
Schema: pIC50 number; meaning minus log10 of the concentration expressed in molar units.

Request: Specify pIC50 for "N=C(N)NCCC[C@H](N)C(=O)O" and stop.
Response: 4.54
